Where these numbers come from: paper PMC3983056

- test.summary: Cell culture medium protein binding by equilibrium dialysis, HPLC/mass spectrometry
- Assay type: in vitro ADME

{"columns": ["compound", "fraction unbound"],
 "data": [
  ["O=C(CCCCCCC(=O)Nc1ccccc1)NO [VOR, suberoylanilide hydroxamic acid]", 0.68]
]}

====

- subject.of.test: human HDAC-7 (Homo sapiens, UniProt Q8WUI4)
- Sequence (Q8WUI4 1-952): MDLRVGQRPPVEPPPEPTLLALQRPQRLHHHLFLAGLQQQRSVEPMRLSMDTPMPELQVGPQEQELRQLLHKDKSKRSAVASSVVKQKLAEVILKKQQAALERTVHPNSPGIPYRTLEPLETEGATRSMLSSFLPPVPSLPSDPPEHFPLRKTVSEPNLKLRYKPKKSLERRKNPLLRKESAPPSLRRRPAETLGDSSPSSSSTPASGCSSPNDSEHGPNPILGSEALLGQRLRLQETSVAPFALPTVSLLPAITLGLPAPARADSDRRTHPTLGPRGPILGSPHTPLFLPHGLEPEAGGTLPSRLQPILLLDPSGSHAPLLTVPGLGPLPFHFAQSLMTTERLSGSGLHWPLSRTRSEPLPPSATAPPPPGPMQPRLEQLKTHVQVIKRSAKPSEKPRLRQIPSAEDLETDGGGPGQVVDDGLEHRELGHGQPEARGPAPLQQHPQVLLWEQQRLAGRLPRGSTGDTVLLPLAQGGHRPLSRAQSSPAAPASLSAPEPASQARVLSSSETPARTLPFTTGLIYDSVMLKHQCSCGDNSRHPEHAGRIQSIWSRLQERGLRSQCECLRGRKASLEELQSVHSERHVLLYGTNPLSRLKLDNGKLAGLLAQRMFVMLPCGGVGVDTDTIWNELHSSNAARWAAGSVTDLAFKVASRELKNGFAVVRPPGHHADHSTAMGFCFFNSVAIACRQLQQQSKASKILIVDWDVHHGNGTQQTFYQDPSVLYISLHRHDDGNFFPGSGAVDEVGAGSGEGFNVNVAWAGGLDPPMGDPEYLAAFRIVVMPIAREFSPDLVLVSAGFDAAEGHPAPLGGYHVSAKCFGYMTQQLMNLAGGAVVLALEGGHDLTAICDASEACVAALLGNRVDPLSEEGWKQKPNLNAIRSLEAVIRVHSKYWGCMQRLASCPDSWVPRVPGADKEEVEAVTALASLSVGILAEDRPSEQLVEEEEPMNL
pIC50: −log10 of the molar value.
measured.property: pIC50

{"columns": ["mol", "measured.property", "measured.result"],
 "data": [
  ["C/C=C1\\NC(=O)[C@H]2CSSCC/C=C/[C@H](CC(=O)N[C@H](C(C)C)C(=O)N2)OC(=O)[C@H](C(C)C)NC1=O", "pIC50", 5.47]
]}
